Reference for the values: patent US5093337A

- Assay Explanation: Asphyxic anoxemia (latency time for disappearance of the ECoG)
- Assay type: in vivo, Sprague Dawley (Charles River) male rat
- Run Parameters: 10 mg/kg intravenous, 3 minutes before asphyxia; rat; read-out: % of variation of the latency time for disappearance of the ECoG after asphyxia
Response key: Criterion met means change in vivo at 10 mg/kg >= 20%; Criterion not met means change in vivo at 10 mg/kg < 20%.

Exercise: Decide: is the reported value of change in vivo at 10 mg/kg for Clc1ccc2c(c1)c1c3n2C=C[C@H]2CCCN(CC1)[C@H]32 (relative stereo) [Example 5] equal to or greater than 20%?
Solution: Criterion met

Exercise: Identify whether the reported change in vivo at 10 mg/kg of the following compound is 20% or greater: Cc1ccc2c3c4n(c2c1)CC[C@H]1CCCN(CC3)[C@H]41 (relative stereo) [Example 12]
Solution: Criterion not met

Exercise: Determine whether measured change in vivo at 10 mg/kg meets or exceeds 20% for COc1ccc2c(c1)c1c3n2C=C[C@H]2CCCN(CC1)[C@H]32 (relative stereo) [Example 29]
Solution: Criterion met

Exercise: // inclusive: change in vivo at 10 mg/kg at least 20%? input: COc1ccc2c3c4n(c2c1)[C@H](O)C[C@H]1CCCN(CC3)[C@H]41 (relative stereo) [Example 22]
Solution: Criterion not met

Exercise: Is change in vivo at 10 mg/kg at least 20%? Consider COc1ccc2c3c4n(c2c1)C=C[C@H]1CCCN(CC3)[C@H]41 (relative stereo) [Example 24]
Solution: Criterion met

Exercise: Answer whether change in vivo at 10 mg/kg of Clc1ccc2c3c4n(c2c1)C=C[C@H]1CCCN(CC3)[C@H]41 (relative stereo) [Example 2] is greater than or equal to 20%.
Solution: Criterion met

Exercise: Is it the case that Cc1ccc2c(c1)c1c3n2C=C[C@H]2CCCN(CC1)[C@H]32 (relative stereo) [Example 16] has change in vivo at 10 mg/kg reaching or exceeding 20%?
Solution: Criterion met
